assay: Octanol-phosphate buffer partition coefficient, log D of the compound at 100 umol/L at pH 7.4; assay type: physicochemical
Below, each entry is listed with its recorded logD at 100 µM.

| STRUCTURE_SMILES | logD at 100 µM |
| --- | --- |
| COc1cccc(OC)c1C(=O)/C=C/c1ccco1 | 2.59 |
| COc1cc(C(=O)/C=C/c2ccc(F)cc2)cc(OC)c1OC | 3.85 |

====

Below, each entry is listed with its recorded solubility at 200 µM.
assay: Aqueous solubility of the compound in simulated gastric fluid at 200 umol/L; format: physicochemical

| STRUCTURE_SMILES | QUANTITY_UNIT | solubility at 200 µM |
| --- | --- | --- |
| COc1cccc(OC)c1C(=O)/C=C/c1ccco1 | µM | 171 |
| COc1cc(C(=O)/C=C/c2ccc(F)cc2)cc(OC)c1OC | µM | 9.1 |
